subjectOfTest: recombinant human Meningioma Expressed Antigen 5 (MGEA5), also referred to as O-GlcNAcase (OGA) (Homo sapiens)
Construct: Full length OGA enzyme was purchased at OriGene (cat #TP322411); purchased OriGene TP322411
Sequence (O60502 1-916): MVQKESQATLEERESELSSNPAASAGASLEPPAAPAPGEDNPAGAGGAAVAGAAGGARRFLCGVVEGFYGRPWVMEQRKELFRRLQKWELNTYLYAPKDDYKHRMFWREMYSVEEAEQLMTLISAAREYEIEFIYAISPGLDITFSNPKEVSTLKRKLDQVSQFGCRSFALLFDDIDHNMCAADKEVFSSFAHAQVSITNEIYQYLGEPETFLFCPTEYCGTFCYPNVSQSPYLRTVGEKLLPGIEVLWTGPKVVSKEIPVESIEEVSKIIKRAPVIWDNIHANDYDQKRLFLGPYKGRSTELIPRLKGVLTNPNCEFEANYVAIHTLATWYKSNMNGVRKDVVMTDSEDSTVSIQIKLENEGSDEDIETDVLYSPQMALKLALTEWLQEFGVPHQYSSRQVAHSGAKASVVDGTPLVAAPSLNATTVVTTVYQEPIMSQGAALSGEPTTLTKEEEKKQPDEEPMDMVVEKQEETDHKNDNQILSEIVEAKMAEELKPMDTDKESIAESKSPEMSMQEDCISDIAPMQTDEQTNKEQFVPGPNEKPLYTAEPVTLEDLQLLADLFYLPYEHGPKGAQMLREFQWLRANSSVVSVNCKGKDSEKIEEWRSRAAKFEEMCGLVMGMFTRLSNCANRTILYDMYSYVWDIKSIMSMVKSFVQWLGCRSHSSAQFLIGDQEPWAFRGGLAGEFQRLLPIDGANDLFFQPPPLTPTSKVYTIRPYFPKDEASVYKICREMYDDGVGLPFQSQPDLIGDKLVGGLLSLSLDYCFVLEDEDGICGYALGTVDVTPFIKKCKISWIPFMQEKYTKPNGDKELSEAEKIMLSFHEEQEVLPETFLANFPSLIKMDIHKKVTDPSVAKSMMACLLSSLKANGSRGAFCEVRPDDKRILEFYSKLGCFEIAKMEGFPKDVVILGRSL
assayName: OGA biochemical assay (inhibition of FM-GlcNAc hydrolysis, fluorescence)
testSettings: FM-GlcNAc substrate, maximal effect, read-out: Enzymatic Emax (%)
So I've got a bunch of compounds here, and I need their Emax values.
One number for each entry, in %.

A selection of reference data follows.
{"columns": ["compound", "reportedEndpoint", "uom", "recordedResult"],
 "data": [
  ["Cc1cc([C@H]2CCCN(C(C)c3nc4nc(C)[nH]c4cc3F)C2)cc(C)n1 (stereo partly shown) [Compound 82]", "Emax", "%", 97],
  ["Cc1cc(OC[C@@H]2CCCN(C(C)c3ccc4sc(C)nc4n3)C2)cc(C)n1 (mixture of isomers) [Compound 45ab]", "Emax", "%", 98],
  ["Cc1cc([C@H]2CCCN([C@H](C)c3nc4nc(C)sc4cc3F)C2)cc(C)n1 (single isomer, unassigned) [Compound 86]", "Emax", "%", 95],
  ["COc1cc(C[C@H]2CCCN([C@@H](C)c3ccc4oc(C)nc4n3)C2)cc(C)n1 (relative stereo) [Compound 23b]", "Emax", "%", 101],
  ["Cc1cc(C[C@H]2CCN([C@@H](C)c3ccc4oc(C)nc4n3)C2)cc(C)n1 [Compound 27a]", "Emax", "%", 99],
  ["COc1cc(OC[C@H]2CCCN(C(C)c3ccc4sc(C)nc4n3)C2)cc(C)n1 (mixture of isomers) [Compound 54]", "Emax", "%", 100]
]}

From here, focus on the item given below.
The compound listed as Cc1cc(C[C@H]2CCN(Cc3ccc4nc(C)sc4c3)C2)cc(C)n1 [Compound 55] has a reported Emax of 18
